Test system: K24384-001-R-PDC complex spheroids, viability;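 note: spheroids exposed to compounds for seven days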
Assay: Anticancer human tumor K24384-001-R-PDC patient-derived pancreatic adenocarcinoma cell line growth inhibition [GQUAD]
Conditions: curve of first compound; second compound 3.16 µM
pIC50: −log10 of the molar value.
observed.property: pIC50

molecule	result
CC(C)(O)C1CCC(Nc2ccc3ncc(-c4cccc(C(F)(F)F)c4)n3n2)CC1 (stereo not drawn) + Cc1cnc(CNC(=O)c2c(=O)c3ccc(N4CCCN(C)CC4)nc3n3c2sc2ccccc23)cn1	> 7.50
Cc1cccc(N(C)C(=O)C2C(O)CCN2c2nc(C)cc(C(F)(F)F)c2C#N)c1 (stereo not drawn) + CN(C)c1ccc(Nc2c3ccc(NC(=O)CCN4CCCC4)cc3nc3cc(NC(=O)CCN4CCCC4)ccc23)cc1	< 5.00
CCc1c2c(nc3ccc(O)cc13)-c1cc3c(c(=O)n1C2)COC(=O)[C@]3(O)CC + Cc1cnc(CNC(=O)c2c(=O)c3ccc(N4CCCN(C)CC4)nc3n3c2sc2ccccc23)cn1	> 9.00
O=c1[nH]cc(F)c(=O)[nH]1 + Cc1cnc(CNC(=O)c2c(=O)c3ccc(N4CCCN(C)CC4)nc3n3c2sc2ccccc23)cn1	> 7.50
COc1cccc2c1C(=O)c1c(O)c3c(c(O)c1C2=O)CC(O)(C(=O)CO)CC3OC1CC(N)C(O)C(C)O1 (stereo not drawn) + Cc1[nH]c2ccc(F)cc2c1-c1nc2c3cccnc3c3ncccc3c2[nH]1	6.90
COc1cccc2c1C(=O)c1c(O)c3c(c(O)c1C2=O)CC(O)(C(=O)CO)CC3OC1CC(N)C(O)C(C)O1 (stereo not drawn) + Cc1cnc(CNC(=O)c2c(=O)c3ccc(N4CCCN(C)CC4)nc3n3c2sc2ccccc23)cn1	> 7.50
O=C(NO)c1cnc(N2CCN(S(=O)(=O)c3ccc4ccccc4c3)CC2)nc1 + Cc1cnc(CNC(=O)c2c(=O)c3ccc(N4CCCN(C)CC4)nc3n3c2sc2ccccc23)cn1	> 7.50
O=C(NO)c1cnc(N2CCN(S(=O)(=O)c3ccc4ccccc4c3)CC2)nc1 + Cc1[nH]c2ccc(F)cc2c1-c1nc2c3cccnc3c3ncccc3c2[nH]1	6.06
CCCS(=O)(=O)Nc1ccc(F)c(C(=O)c2c[nH]c3ncc(-c4ccc(Cl)cc4)cc23)c1F + Cc1[nH]c2ccc(F)cc2c1-c1nc2c3cccnc3c3ncccc3c2[nH]1	5.30
CC(=O)O[C@H]1C(=O)[C@@]2(C)[C@H]([C@H](OC(=O)c3ccccc3)[C@]3(O)C[C@H](OC(=O)[C@H](O)[C@@H](NC(=O)c4ccccc4)c4ccccc4)C(C)=C1C3(C)C)[C@]1(OC(C)=O)CO[C@@H]1C[C@@H]2O + CN(C)c1ccc(Nc2c3ccc(NC(=O)CCN4CCCC4)cc3nc3cc(NC(=O)CCN4CCCC4)ccc23)cc1	> 7.50
C=CC(=O)N1CCN(c2nc(=O)n(-c3c(C)ccnc3C(C)C)c3nc(-c4c(O)cccc4F)c(F)cc23)C(C)C1 (stereo not drawn) + CN(C)c1ccc(Nc2c3ccc(NC(=O)CCN4CCCC4)cc3nc3cc(NC(=O)CCN4CCCC4)ccc23)cc1	< 5.00
CC1COCCN1c1cc(C2(O)CC3CCC(C2)O3)c2cnn(-c3ccn[nH]3)c2n1 (stereo not drawn) + Cc1cnc(CNC(=O)c2c(=O)c3ccc(N4CCCN(C)CC4)nc3n3c2sc2ccccc23)cn1	> 7.50
CCCS(=O)(=O)Nc1ccc(F)c(C(=O)c2c[nH]c3ncc(-c4ccc(Cl)cc4)cc23)c1F + CN(C)c1ccc(Nc2c3ccc(NC(=O)CCN4CCCC4)cc3nc3cc(NC(=O)CCN4CCCC4)ccc23)cc1	5.03
CC(C)(O)C1CCC(Nc2ccc3ncc(-c4cccc(C(F)(F)F)c4)n3n2)CC1 (stereo not drawn) + Cc1[nH]c2ccc(F)cc2c1-c1nc2c3cccnc3c3ncccc3c2[nH]1	6.35
O=c1[nH]cc(F)c(=O)[nH]1 + CN(C)c1ccc(Nc2c3ccc(NC(=O)CCN4CCCC4)cc3nc3cc(NC(=O)CCN4CCCC4)ccc23)cc1	5.87
CC1COCCN1c1cc(C2(S(C)(=N)=O)CC2)nc(-c2ccnc3[nH]ccc23)n1 (stereo not drawn) + Cc1cnc(CNC(=O)c2c(=O)c3ccc(N4CCCN(C)CC4)nc3n3c2sc2ccccc23)cn1	> 7.50
CC[C@@]1(O)C(=O)OCc2c1cc1n(c2=O)Cc2cc3c(CN(C)C)c(O)ccc3nc2-1 + Cc1cnc(CNC(=O)c2c(=O)c3ccc(N4CCCN(C)CC4)nc3n3c2sc2ccccc23)cn1	> 9.00
CC(=O)O[C@H]1C(=O)[C@@]2(C)[C@H]([C@H](OC(=O)c3ccccc3)[C@]3(O)C[C@H](OC(=O)[C@H](O)[C@@H](NC(=O)c4ccccc4)c4ccccc4)C(C)=C1C3(C)C)[C@]1(OC(C)=O)CO[C@@H]1C[C@@H]2O + Cc1cnc(CNC(=O)c2c(=O)c3ccc(N4CCCN(C)CC4)nc3n3c2sc2ccccc23)cn1	> 7.50
